- ASSAYED TARGET: hFASN enzyme (full length) (Homo sapiens)
- Construct: 10 μL hFASN enzyme (full length, 300 ng, purified in house); made in house
- Sequence (P49327 whole entry): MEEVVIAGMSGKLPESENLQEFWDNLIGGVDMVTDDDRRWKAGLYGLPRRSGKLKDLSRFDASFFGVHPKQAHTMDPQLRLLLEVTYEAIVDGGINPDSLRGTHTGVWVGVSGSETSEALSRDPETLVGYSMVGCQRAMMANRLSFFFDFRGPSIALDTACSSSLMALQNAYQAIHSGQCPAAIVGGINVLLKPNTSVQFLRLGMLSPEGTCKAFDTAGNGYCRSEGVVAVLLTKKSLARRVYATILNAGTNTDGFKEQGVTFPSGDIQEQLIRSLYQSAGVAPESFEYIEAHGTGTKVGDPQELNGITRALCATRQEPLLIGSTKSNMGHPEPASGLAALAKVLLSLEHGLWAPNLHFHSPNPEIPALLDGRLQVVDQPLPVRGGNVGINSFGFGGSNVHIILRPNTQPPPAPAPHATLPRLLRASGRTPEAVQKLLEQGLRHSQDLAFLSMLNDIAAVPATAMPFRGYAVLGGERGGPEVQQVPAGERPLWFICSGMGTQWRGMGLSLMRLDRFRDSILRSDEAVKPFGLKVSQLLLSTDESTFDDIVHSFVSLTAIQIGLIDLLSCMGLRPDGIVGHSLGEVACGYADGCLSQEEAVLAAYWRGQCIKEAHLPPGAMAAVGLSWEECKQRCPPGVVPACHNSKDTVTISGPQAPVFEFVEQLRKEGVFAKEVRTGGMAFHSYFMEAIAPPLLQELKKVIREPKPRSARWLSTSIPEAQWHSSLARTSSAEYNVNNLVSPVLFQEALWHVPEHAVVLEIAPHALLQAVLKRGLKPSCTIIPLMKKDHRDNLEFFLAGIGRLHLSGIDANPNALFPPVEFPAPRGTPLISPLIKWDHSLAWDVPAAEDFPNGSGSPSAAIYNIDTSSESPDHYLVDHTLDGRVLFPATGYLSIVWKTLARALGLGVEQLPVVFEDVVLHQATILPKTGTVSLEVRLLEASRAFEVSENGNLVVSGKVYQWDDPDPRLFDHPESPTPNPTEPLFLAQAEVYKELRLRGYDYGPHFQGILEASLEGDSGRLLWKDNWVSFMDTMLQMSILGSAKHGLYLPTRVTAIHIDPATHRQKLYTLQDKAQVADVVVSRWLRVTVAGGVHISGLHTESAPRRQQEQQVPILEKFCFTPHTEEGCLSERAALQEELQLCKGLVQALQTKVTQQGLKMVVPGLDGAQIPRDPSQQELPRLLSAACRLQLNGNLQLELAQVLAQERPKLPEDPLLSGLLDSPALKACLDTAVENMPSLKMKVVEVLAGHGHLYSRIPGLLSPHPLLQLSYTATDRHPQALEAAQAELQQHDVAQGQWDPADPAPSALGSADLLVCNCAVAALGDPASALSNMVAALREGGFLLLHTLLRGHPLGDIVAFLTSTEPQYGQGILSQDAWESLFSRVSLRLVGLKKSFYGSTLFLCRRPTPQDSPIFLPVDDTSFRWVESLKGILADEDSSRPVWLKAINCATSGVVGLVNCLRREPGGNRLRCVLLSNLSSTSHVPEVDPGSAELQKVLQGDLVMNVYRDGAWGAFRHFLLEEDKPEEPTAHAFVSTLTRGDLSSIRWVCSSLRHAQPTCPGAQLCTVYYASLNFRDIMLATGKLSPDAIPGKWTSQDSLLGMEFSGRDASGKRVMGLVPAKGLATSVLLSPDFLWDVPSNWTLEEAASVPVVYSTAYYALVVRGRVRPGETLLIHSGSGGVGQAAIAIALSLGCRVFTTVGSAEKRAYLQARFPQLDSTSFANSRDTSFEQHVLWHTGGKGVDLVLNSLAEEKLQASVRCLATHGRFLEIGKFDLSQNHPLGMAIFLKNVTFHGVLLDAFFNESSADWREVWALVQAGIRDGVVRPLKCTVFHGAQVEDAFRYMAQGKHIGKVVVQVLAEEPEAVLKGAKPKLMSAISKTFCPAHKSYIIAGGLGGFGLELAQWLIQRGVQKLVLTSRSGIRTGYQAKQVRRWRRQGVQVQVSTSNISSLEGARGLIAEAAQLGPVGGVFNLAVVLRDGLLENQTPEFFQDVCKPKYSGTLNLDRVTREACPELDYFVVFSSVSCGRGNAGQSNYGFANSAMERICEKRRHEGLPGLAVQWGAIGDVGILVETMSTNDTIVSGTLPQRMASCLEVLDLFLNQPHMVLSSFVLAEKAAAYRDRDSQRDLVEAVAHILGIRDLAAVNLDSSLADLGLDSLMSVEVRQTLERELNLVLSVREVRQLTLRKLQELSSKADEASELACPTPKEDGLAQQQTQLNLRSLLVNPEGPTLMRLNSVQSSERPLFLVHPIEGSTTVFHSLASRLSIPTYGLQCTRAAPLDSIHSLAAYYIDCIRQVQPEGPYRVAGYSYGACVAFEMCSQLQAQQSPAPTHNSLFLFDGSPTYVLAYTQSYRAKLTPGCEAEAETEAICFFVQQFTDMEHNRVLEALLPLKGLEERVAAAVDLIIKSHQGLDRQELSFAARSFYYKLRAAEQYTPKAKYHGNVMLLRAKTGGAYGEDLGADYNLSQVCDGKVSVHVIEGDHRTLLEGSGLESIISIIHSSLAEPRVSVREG
- ASSAY DETAILS: Fatty Acid Synthase (FASN) inhibition scintillation proximity assay
- Format: biochemical
- TEST SETTINGS: read-out: Human FASN % inhibition @ 10 μM, 10 μM test compound
MEASURED ENDPOINT: inhibition at 10 µM (%)

O=C(C1CC1)N1CC[C@@H](CN2C(=O)C3(CC3)N=C2c2cnc(-c3ccc4occc4c3)nc2)C1 [compound 458]; 48
O=C(C1CC1)N1CC[C@@H](CN2C(=O)C3(CC3)N=C2c2ccc(-c3ccc4occc4c3)nc2)C1 [compound 420]; 92
O=C(C1CC1)N1CCC[C@@H](CN2C(=O)C3(CC3)N=C2c2ccc(-c3ccc4occc4c3)cc2)C1 [compound 395]; 54
COC(=O)N1CC2(C1)N=C(c1ccc(-c3ccc4c(cnn4C)c3)cc1)N(C[C@@H]1CCN(S(C)(=O)=O)C1)C2=O [compound 917]; 2

I: Cc1cc(-c2ccc3c(C)cc(Cl)nc3c2)ccc1C1=NC2(CC2)C(=O)N1CC1CN(C(=O)C2(C)CC2)C1 [compound 624]
II: O=C(C1CC1)N1CCC[C@H](CN2C(=O)C3(CC3)N=C2c2ccc(-c3ccc4[nH]ncc4c3)cc2)C1 [compound 816]
III: Cc1cc(C2=NC3(CC3)C(=O)N2CC2CN(C(=O)C3CC3)C2)ccc1-c1ccc2c(cnn2C)c1 [compound 436]
IN: Let's sort these by inhibition at 10 µM, smallest first. Go ahead? # answer = labels listed in requested order
OUT: II, III, I
(II: 4%, III: 43%, I: 76%)

====

- Tested on: LNCaP-Vancouver prostate cells
- ASSAY DETAILS: In vitro LNCaP Vancouver prostate cell proliferation assay in lipid reduced medium
- Assay type: cell-based
- TEST SETTINGS: read-out: pIC50 LNCaP_Vancouver prostate cell (converted)
- Experimental: LNCaP-Vancouver prostate cells were obtained from the Vancouver Prostate Cancer Centre. Cells were maintained in RPMI-1640, 10% Fetal Calf Serum (FCS, Hyclone), 2 mM glutamine and 50 μg/ml Gentamicin. […] pIC50 values were calculated as follows. […]
MEASURED ENDPOINT: IC50 (µM)

a: Cc1cc(C2=NC3(CC3)C(=O)N2C[C@@H]2CCN(C(=O)C3CC3)C2)ccc1-c1ccc2sccc2c1
b: O=C(C1CC1)N1CC[C@@H](CN2C(=O)C3(CCN(C(=O)C(F)(F)F)CC3)N=C2c2ccc(-c3ccc4[nH]ccc4c3)cc2)C1
c: Cn1ncc2cc(-c3ccc(C4=NC5(CC5)C(=O)N4CC4CN(C(=O)C5(F)CC5)C4)c(F)c3)ccc21
IN: Provide the items ranked by increasing IC50. # answer = labels listed in requested order
OUT: b, a, c

====

- ASSAYED TARGET: hFASN enzyme (full length) (Homo sapiens)
- Construct: 10 μL hFASN enzyme (full length, 300 ng, purified in house); made in house
- ASSAY DETAILS: Fatty Acid Synthase (FASN) inhibition scintillation proximity assay
- Format: biochemical
- TEST SETTINGS: read-out: Human FASN pIC50 (converted)
MEASURED ENDPOINT: IC50 (nM)

I: Cc1cc2ccc(-c3ccc(C4=NC5(CC5)C(=O)N4CC4CN(C(=O)C5CC5)C4)cc3)cc2nc1Cl
II: O=C(N1CCCC1)N1CC(CN2C(=O)C3(CCOC3)N=C2c2ccc(-c3ccc4cccnc4c3)cc2)C1 (stereo not shown)
III: O=C(C1CC1)N1CCC(CN2C(=O)C3(CC3)N=C2c2ccc(-c3ccc(Cl)cc3)cc2)CC1
IN: Provide the items ranked by increasing IC50. # answer = labels listed in requested order
OUT: II, I, III
